Recorded below: MIC, system Escherichia coli ML 4707.
// units = µg/mL; emit number, no label

q: For Escherichia coli ML 4707, provide MIC of C[n+]1ccc(SCC2=C(C(=O)[O-])N3C(=O)[C@@H](NC(=O)/C(=N\OCc4cc(=O)c(O)cn4O)c4csc(N)n4)[C@H]3SC2)c2c1CCC2 please.
a: 0.05

q: For Escherichia coli ML 4707, provide MIC of Cc1cc(SCC2=C(C(=O)O)N3C(=O)[C@@H](NC(=O)/C(=N\OCc4cc(=O)c(O)cn4O)c4csc(N)n4)[C@H]3SC2)n2nc(C(=O)O)nc2n1 please.
a: 0.1

q: For Escherichia coli ML 4707, provide MIC of NC(=O)c1cc[n+](CC2=C(C(=O)O)N3C(=O)[C@@H](NC(=O)[C@@H](c4ccccc4)S(=O)(=O)[O-])[C@H]3SC2)cc1 [CFS, cefsulodin, reference compound] please.
a: 50

q: For Escherichia coli ML 4707, provide MIC of CC(C)(O/N=C(\C(=O)N[C@@H]1C(=O)N2C(C(=O)[O-])=C(C[n+]3ccccc3)CS[C@H]12)c1csc(N)n1)C(=O)O [CAZ, ceftazidime, reference compound] please.
a: 0.2

* * *

- System: Escherichia coli ML 4707
- EXPERIMENT SUMMARY: infection-preventive effects in mice (intraperitoneal infection, survival)
- Format: in vivo, JCL:JCR type male mice
- CONDITIONS USED: ML4707, ip, 168 h, E. coli ML 4707, 1.1 × 10^6 cells/mouse i.p., no mucin, compound hypodermically 1 hour after infection, 7-day survival
Kindly supply the reported ED50 values for the records listed here.
// units = mg/kg; emit number, no label

q: Request the reported ED50 associated with CC(C)(O/N=C(\C(=O)N[C@@H]1C(=O)N2C(C(=O)[O-])=C(C[n+]3ccccc3)CS[C@H]12)c1csc(N)n1)C(=O)O [CAZ, ceftazidime, reference compound]
a: 0.73

q: Request the reported ED50 associated with Nc1nc(/C(=N/OCc2cc(=O)c(O)cn2O)C(=O)N[C@@H]2C(=O)N3C(C(=O)O)=C(CSc4nnnn4CCO)CS[C@H]23)cs1
a: 0.13

q: Request the reported ED50 associated with CO/N=C(\C(=O)N[C@@H]1C(=O)N2C(C(=O)O)=C(COC(C)=O)CS[C@H]12)c1csc(N)n1 [CTX, cefotaxime, reference compound]
a: 0.095

q: Request the reported ED50 associated with Cn1nnnc1SCC1=C(C(=O)O)N2C(=O)[C@@H](NC(=O)/C(=N\OCc3cc(=O)c(O)cn3O)c3csc(N)n3)[C@H]2SC1
a: 0.12

q: Request the reported ED50 associated with Cc1cc(SCC2=C(C(=O)O)N3C(=O)[C@@H](NC(=O)/C(=N\OCc4cc(=O)c(O)cn4O)c4csc(N)n4)[C@H]3SC2)n2nc(C(=O)O)nc2n1
a: 0.16

q: Request the reported ED50 associated with C[n+]1ccc(SCC2=C(C(=O)[O-])N3C(=O)[C@@H](NC(=O)/C(=N\OCc4cc(=O)c(O)cn4O)c4csc(N)n4)[C@H]3SC2)cc1
a: 0.034

q: Request the reported ED50 associated with C[n+]1ccc(SCC2=C(C(=O)[O-])N3C(=O)[C@@H](NC(=O)/C(=N\OCc4cc(=O)c(O)cn4O)c4csc(N)n4)[C@H]3SC2)c2c1CCC2
a: 0.077
